- particulars: in cyclohexane, 288.15 K
measured_attribute: solubility (mole fraction)

Bench note: what solubility (mole fraction) did `CC(=O)c1ccc(S(C)(=O)=O)cc1` show?
0.0065

###

- particulars: in ethyl acetate, 323.15 K
measured_attribute: solubility (mole fraction)
One number for each entry.

Given the entry `CC(=O)c1ccc(S(C)(=O)=O)cc1` , report its measured solubility (mole fraction).
0.0639

###

- particulars: in isobutanol, 323.15 K
measured_attribute: solubility (mole fraction)

Name the recorded solubility (mole fraction) for `CC(=O)c1ccc(S(C)(=O)=O)cc1` .
0.0246

###

- particulars: in isobutanol, 288.15 K
measured_attribute: solubility (mole fraction)
One number for each entry.

Give the measured solubility (mole fraction) of `CC(=O)c1ccc(S(C)(=O)=O)cc1` .
0.0094

###

- particulars: in n-hexane, 328.15 K
measured_attribute: solubility (mole fraction)
Numbers only.

Dear colleague, I am looking for the recorded solubility (mole fraction) of the following compound: `CC(=O)c1ccc(S(C)(=O)=O)cc1`
0.0241

###

- particulars: in n-butanol, 313.15 K
measured_attribute: solubility (mole fraction)
Answers are plain numbers.

Given `CC(=O)c1ccc(S(C)(=O)=O)cc1` , state its recorded solubility (mole fraction).
0.0205

###

- particulars: in ethyl acetate, 288.15 K
measured_attribute: solubility (mole fraction)
Numbers only.

// returns reported solubility (mole fraction) for input `CC(=O)c1ccc(S(C)(=O)=O)cc1`
0.0295

###

- particulars: in ethylene glycol, 318.15 K
measured_attribute: solubility (mole fraction)

Which solubility (mole fraction) is listed for `CC(=O)c1ccc(S(C)(=O)=O)cc1` ?
0.045

###

- particulars: in ethanol, 318.15 K
measured_attribute: solubility (mole fraction)
Give bare numbers.

# input compound: `CC(=O)c1ccc(S(C)(=O)=O)cc1` ; wanted: its solubility (mole fraction)
0.0325

###

- particulars: in n-butanol, 293.15 K
measured_attribute: solubility (mole fraction)

Reported solubility (mole fraction), compound `CC(=O)c1ccc(S(C)(=O)=O)cc1` : ____
0.0125

###

- particulars: in isobutanol, 298.15 K
measured_attribute: solubility (mole fraction)
Numbers only.

Dear colleague, I am looking for the recorded solubility (mole fraction) of the following compound: `CC(=O)c1ccc(S(C)(=O)=O)cc1`
0.0124

###

- particulars: in ethanol, 278.15 K
measured_attribute: solubility (mole fraction)

Consider the compound `CC(=O)c1ccc(S(C)(=O)=O)cc1` and give its measured solubility (mole fraction).
0.0123
